- Test system: SNB-75 CNS
- ASSAY OVERVIEW: NCI-60 one-dose screen, 48 h
- CONDITION SET: 10 µM unless noted
Compounds without any hit were thinned out: in the full panel of roughly 83,000, 20% have a hit. Calls of active or inactive are those of the source. Rule for the calls: active = growth percent below 10; inactive = the rest.
I would appreciate it if you answered using one of these outcomes: active, inactive

# outcome recorded in this test, key = C#C[C@]1(O)CC[C@H]2[C@@H]3CC=C4c5sc(Nc6cccc(C)n6)nc5CC[C@]4(C)[C@H]3CC[C@@]21C
active

Look up the recorded call for COc1ccc(Cn2cc3c(c2-c2cc(OC)c(OC)c(OC)c2)CCCc2cnoc2-3)cc1 in this test.
active

Which outcome was assigned to O=S(=O)(Nc1ccc(I)c(Cl)c1)c1ccc(-c2cnc(C3CC3)o2)cc1 in this test?
active

Recorded call for CSc1ccc(/C(=N/N=C(N)N)c2ccccc2)cc1 ?
active

What outcome does the record of this test show for C=CCn1c(SCC(=O)Nc2cccc(C(=O)/C=C/c3ccc(Br)cc3)c2)nc2ccccc2c1=O ?
inactive

Could you please tell me the result logged for CN(C)c1ccc(/C=N/Nc2nc(N/N=C/c3ccc(N(C)C)cc3)nc(N3CCOCC3)n2)cc1 in this assay?
inactive

Could you please tell me the result logged for COc1ccc(-c2cc(-c3cccc4ccccc34)n3c(n2)nc2ccccc23)cc1 in this assay?
inactive

// outcome(item) with item = O=C(/C=C/Nc1ccc(S(=O)(=O)O)cc1)c1ccc(F)cc1
inactive

Check the results log: what was the call for N/C(=N\OC(=O)CSc1nc2ccccc2s1)c1ccc(Cl)cc1 ?
inactive

====

- System: K-562 leukemia
- ASSAY OVERVIEW: NCI-60 one-dose screen, 48 h (100 = growth as untreated, 0 = no growth, -100 = all killed)
- CONDITION SET: 10 µM unless noted
The panel holds about 83,000 compounds, 20% with a hit somewhere; the sample as a whole holds those more often.
Class met: growth at least 60%. Class not met: growth below 60%.

Check if growth >= 60% (inclusive). Item: Cc1ccc(/C=C/CC(=O)Nc2ccc(C(=O)Nc3ccc(F)cc3N)cc2)cn1
not met

Answer whether growth of COc1ccc2c(c1)oc1c3[nH]c4ccccc4c3c3c(c21)C(=O)N(O)C3=O is greater than or equal to 60%.
not met

Could you tell me if the measured growth of COc1ccc(-c2nc(SCC(C)C)nc(N/N=C\c3cccc([N+](=O)[O-])c3)c2C#N)cc1 reaches 60% or more?
not met

Check the entry CC(=O)Nc1cccc(-n2cnc3cc(-c4ccc(O)cc4)ccc32)c1 : does growth equal or exceed 60%?
not met

Would you say COc1cc(/C=N/n2cnc3oc(-c4ccccc4)cc3c2=N)cc(CN2CCOCC2)c1O shows growth at minimum 60%?
not met

Hi team, for CC(C)(C)n1nnnc1C(Nc1nccs1)c1cc2cccc3ccc4cccc1c4c32 (stereo unspecified) , is the recorded growth at or above 60%?
met

Does CN1CCN(Cc2ccc(NC(=O)c3cncc(C#Cc4cnc5ccc(NC6CCOCC6)nn45)c3)cc2C(F)(F)F)CC1 have a reported growth of at least 60%?
not met

Decide: is the reported value of growth for CN1CCN(Cc2ccc(NC(=O)c3cncc(C#Cc4[nH]nc5ncncc45)c3)cc2C(F)(F)F)CC1 equal to or greater than 60%?
not met

Threshold query (growth >= 60%) on O=C(NNc1nc2cc(F)ccc2n2cncc12)c1cnccn1
not met

Test whether the compound COC(=O)[C@@]1(C)CC[C@]2(C)CC[C@]3(C)C(=CC(=O)[C@@H]4[C@@]5(C)Cc6c(n(CC#CCN7CCN(C)CC7)c7ccccc67)C(C)(C)[C@@H]5CC[C@]43C)[C@@H]2C1 records growth of 60% or higher.
not met

Test whether the compound C#C[C@]1(O)CC[C@H]2[C@@H]3CC=C4c5sc(Nc6cc(OC)ccc6OC)nc5CC[C@]4(C)[C@H]3CC[C@@]21C records growth of 60% or higher.
not met

Does O=C(NNc1nc2cc(F)c(F)cc2n2cccc12)c1ccncn1 have a reported growth of at least 60%?
not met

Hello, I need to know if COc1cc([C@H]2OC[C@H]3[C@@H]2CO[C@@H]3c2ccc(O)c(OC)c2)ccc1O has measured growth not below 60%. Thanks!
met

hey, is growth for this one >= 60%? CCN1C(=O)N(CC)C2SC(N/N=C/c3ccccc3F)=NC21 (stereo unspecified)
not met

hey, is growth for this one >= 60%? C#C[C@]1(O)CC[C@H]2[C@@H]3CC=C4c5sc(Nc6ccc(OC)nc6)nc5CC[C@]4(C)[C@H]3CC[C@@]21C
not met

Tell me whether growth is at least 60% here: COc1ccc(S(=O)(=O)NCCCNc2nccc(-n3cnc4ccccc43)n2)cc1
met

Hi team, for COc1ccc(-c2cc(-c3ccc(Cl)cc3)nc3nc(N)nn23)cc1 , is the recorded growth at or above 60%?
met

Determine whether this compound has growth no lower than 60%: CCOC(=O)C1=C(C)Nc2nc3ccccc3n2C1c1ccccc1 (stereo unspecified)
met

growth >= 60% for O=[N+]([O-])c1ccc(-c2nnc(SCc3ccc(O)c4ncccc34)n2-c2ccccc2)cc1 ?
not met

Evaluate Clc1ccc(-c2csc(Nc3cccc(Nc4csc(-c5ccc(Cl)cc5)n4)c3)n2)cc1 : growth at minimum 60%?
met

Check if growth >= 60% (inclusive). Item: O=C(Nc1cccc(-c2nc(-c3ccc(NC(=O)c4cccnc4)cc3Cl)no2)c1)Nc1ccc(NC(=O)C2CC2)c(C(F)(F)F)c1
not met

I'd appreciate it if you could say whether O=C(Nc1cccc(-c2nc(-c3ccc(NC(=O)c4cccs4)cc3Cl)no2)c1)Nc1ccc(NC(=O)C2CC2)c(C(F)(F)F)c1 has growth at least equal to 60%.
not met

In plain terms: is recorded growth at least 60% for CCN1C(=O)N(CC)C2SC(N/N=C/c3ccc(F)cc3)=NC21 (stereo unspecified) ?
not met

Evaluate CN(c1ccc(Br)cc1)S(=O)(=O)c1ccc(-c2cnc(C3CC3)o2)cc1 : growth at minimum 60%?
not met

Is the recorded value of growth equal to or greater than 60% for this compound? CCc1ccc(NC(=O)N[C@@H](Cc2cccc(C)c2)C(=O)N[C@@H]2C(=O)N3CCC[C@H]3C(=O)N3CCCC[C@H]3C(=O)N[C@@H](CO)C(=O)N3C[C@H](C)C[C@H]3C(=O)O[C@H]2C)c(F)c1
not met

Assess whether reported growth for COc1ccc(-c2nnc(/N=C3/C(=O)Nc4ccc(Br)cc43)o2)cc1 sits at 60% or higher.
met

Item CCN1C(=O)N(CC)C2SC(N/N=C/c3ccc(OC)cc3)=NC21 (stereo unspecified) with growth of 60% or above?
not met

hey, is growth for this one >= 60%? O=C(CN1CCN(c2cc(=O)n(-c3ccccc3)c3ccccc23)CC1)Nc1ccc([N+](=O)[O-])cc1
met

Textbook exercise: given the entry O=c1oc2ccc(-c3ccc(F)cc3F)cc2c(=O)n1-c1cccc(C(F)(F)F)c1 , state whether its growth is greater than or equal to 60%.
not met

Please tell me: is the compound Cc1ccc(NC(=O)c2cccc(CN3CCN(C)CC3)c2)cc1Oc1ccc(-c2[nH]nc3ncnc(N)c23)cc1 at or over 60% in terms of growth?
not met

Would you say CS(=O)c1nccc(-c2c(-c3ccc(F)c(OCCc4ccc(F)cc4)c3)nc3sccn23)n1 (stereo unspecified) shows growth at minimum 60%?
not met

Is growth for NC(=S)N/N=C(/C=C/c1cn(-c2ccccc2)nc1-c1ccc(Cl)cc1)c1cc2ccccc2oc1=O at or above 60%?
not met

Has N#C/C(=C\c1ccc(N2CCCCC2)cc1)C(=O)Nc1sc2c(c1C#N)CCC2 a recorded growth greater than or equal to 60%?
met

Reported growth at or above 60%? CCCC(=O)NC(c1cccnc1)c1cc(C(C)=O)c2cccnc2c1O (stereo unspecified)
not met

Decide: is the reported value of growth for N/C(=N\OC(=O)CSc1nc2ccccc2s1)c1ccc2ccccc2c1 equal to or greater than 60%?
met
